inhibition listing for selected compounds.
target: Serine/threonine-protein kinase 10 (Homo sapiens) (UniProt O94804); settings: at 0.1 µM;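 further: mean percent inhibition of LOK (STK10)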
Sequence (O94804 whole entry, looked up): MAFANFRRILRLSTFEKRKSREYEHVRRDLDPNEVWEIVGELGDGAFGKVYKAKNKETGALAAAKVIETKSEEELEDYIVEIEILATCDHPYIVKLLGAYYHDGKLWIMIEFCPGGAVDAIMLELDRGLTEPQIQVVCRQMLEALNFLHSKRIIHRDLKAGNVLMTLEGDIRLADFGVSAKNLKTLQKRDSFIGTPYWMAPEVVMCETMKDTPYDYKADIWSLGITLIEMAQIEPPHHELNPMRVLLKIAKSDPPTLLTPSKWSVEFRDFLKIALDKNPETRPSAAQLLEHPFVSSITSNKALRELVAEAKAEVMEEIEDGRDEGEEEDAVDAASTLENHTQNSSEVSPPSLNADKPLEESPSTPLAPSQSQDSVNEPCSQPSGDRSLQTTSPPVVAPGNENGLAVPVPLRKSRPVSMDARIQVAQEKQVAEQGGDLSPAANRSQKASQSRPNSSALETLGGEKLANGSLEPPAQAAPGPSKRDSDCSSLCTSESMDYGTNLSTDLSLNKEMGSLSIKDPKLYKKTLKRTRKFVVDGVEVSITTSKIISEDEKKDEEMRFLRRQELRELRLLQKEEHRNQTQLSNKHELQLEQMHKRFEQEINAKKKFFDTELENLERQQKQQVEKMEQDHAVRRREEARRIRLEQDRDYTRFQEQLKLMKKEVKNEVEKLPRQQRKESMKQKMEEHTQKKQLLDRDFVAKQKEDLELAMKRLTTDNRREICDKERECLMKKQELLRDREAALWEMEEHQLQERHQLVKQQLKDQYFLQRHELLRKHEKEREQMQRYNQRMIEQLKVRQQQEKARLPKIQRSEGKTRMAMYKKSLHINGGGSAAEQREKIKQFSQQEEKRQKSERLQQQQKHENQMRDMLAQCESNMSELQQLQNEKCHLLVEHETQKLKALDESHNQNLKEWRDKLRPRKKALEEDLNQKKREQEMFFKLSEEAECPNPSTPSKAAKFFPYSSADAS
experimental.endpoint: inhibition (%)

>>> test_value("COc1cc(Nc2nccc(-c3cnn4ncccc34)n2)cc(OC)c1")
5.8
>>> test_value("Cc1nc(-c2ccccc2)n2nc(NCCCN3CCOCC3)ncc12")
4.62
>>> test_value("Nc1nccc(C#Cc2cncnc2Nc2ccc(OCc3cccc(F)c3)c(Cl)c2)n1")
5.76
>>> test_value("CN1CCN(C(=O)c2ccc(NC(=O)Nc3ccc(N(C)c4ccnc(Nc5ccc(CS(C)(=O)=O)cc5)n4)cc3)cc2)CC1")
26.3
>>> test_value("COc1cccc(-n2nc(C)c3c(N/N=C(\\C)c4ccncc4)ncnc32)c1")
0.54
>>> test_value("NS(=O)(=O)c1ccc(Nc2cc(-c3cccc(O)c3)n[nH]2)cc1")
6.23

* * *

target: Ribosomal protein S6 kinase alpha-3 (Homo sapiens) (UniProt P51812); conditions: at 0.1 µM;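 further: reported value is a mean inhibition figure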
Sequence (P51812 whole entry): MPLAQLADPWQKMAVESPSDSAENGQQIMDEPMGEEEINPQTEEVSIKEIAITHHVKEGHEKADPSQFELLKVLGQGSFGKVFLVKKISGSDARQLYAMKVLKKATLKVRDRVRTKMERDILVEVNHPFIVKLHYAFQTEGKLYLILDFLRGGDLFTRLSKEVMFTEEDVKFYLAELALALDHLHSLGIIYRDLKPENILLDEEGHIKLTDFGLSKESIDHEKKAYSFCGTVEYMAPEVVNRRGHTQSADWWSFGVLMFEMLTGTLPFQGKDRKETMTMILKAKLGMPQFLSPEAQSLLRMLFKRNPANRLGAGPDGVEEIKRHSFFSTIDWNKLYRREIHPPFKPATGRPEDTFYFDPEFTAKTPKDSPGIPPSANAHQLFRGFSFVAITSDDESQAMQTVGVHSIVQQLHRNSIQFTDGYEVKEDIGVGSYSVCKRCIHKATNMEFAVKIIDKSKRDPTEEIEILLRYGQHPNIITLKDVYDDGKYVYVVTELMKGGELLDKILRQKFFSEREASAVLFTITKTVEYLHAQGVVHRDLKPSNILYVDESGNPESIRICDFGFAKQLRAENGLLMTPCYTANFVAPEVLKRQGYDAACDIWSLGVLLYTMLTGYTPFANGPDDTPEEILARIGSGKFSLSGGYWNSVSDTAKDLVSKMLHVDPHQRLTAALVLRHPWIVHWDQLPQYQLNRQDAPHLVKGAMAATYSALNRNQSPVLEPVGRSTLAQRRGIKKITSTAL
inhibition vs 1%: at or above is MET, below is NOT MET.

>>> class_assignment("Nc1nccc(C#Cc2cncnc2Nc2ccc(OCc3cccc(F)c3)c(Cl)c2)n1")
"NOT MET"
>>> class_assignment("Cc1cc(O)cc(C)c1/C=C/c1cncc(C(=O)N(C)C)c1")
"MET"
>>> class_assignment("COc1cc2ncn(-c3cc(OCc4ccccc4S(C)(=O)=O)c(C#N)s3)c2cc1OC")
"MET"
>>> class_assignment("CN(C)c1cc2c(Nc3ccc4c(cnn4Cc4ccccc4)c3)ncnc2cn1")
"MET"
>>> class_assignment("COc1ccc2ncnc(Nc3ccc(OCc4ccccc4)cc3)c2c1")
"MET"

* * *

biological target: Inhibitor of nuclear factor kappa-B kinase subunit alpha (Homo sapiens); details: at 0.1 µM;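 further: mean percent inhibition from GSK PKIS profiling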
inhibition listing for selected compounds.
experimental.endpoint: inhibition (%)

>>> test_value("CN(C)c1cc2c(Nc3ccc4c(cnn4Cc4ccccc4)c3)ncnc2cn1")
3.64
>>> test_value("Nc1ccc(C#Cc2cncnc2Nc2ccc(OCc3cccc(F)c3)c(Cl)c2)cc1")
0.36
>>> test_value("NS(=O)(=O)c1ccc(Nc2cc(-c3cccc(O)c3)n[nH]2)cc1")
2.32
>>> test_value("Cc1ccc2c(-c3ccnc(Nc4ccc5c(c4)OCCO5)n3)c(-c3ccc(C(F)(F)F)cc3)nn2n1")
0.44
>>> test_value("NS(=O)(=O)c1ccc(NC=C2C(=O)Nc3ccc4ncsc4c32)cc1")
13.6
>>> test_value("CCOc1nccc2c1nc(-c1nonc1N)n2CC")
2.3
>>> test_value("Oc1cccc(-c2nc(-c3ccccc3)[nH]c2-c2ccncc2)c1")
2.95
>>> test_value("CN1CCN(C(=O)c2ccc(NC(=O)Nc3ccc(N(C)c4ccnc(Nc5ccc(CS(C)(=O)=O)cc5)n4)cc3)cc2)CC1")
3.61
>>> test_value("O=S(=O)(CCOCc1ccc(-c2ccc3ncnc(Nc4ccc(OCc5cccc(F)c5)c(Cl)c4)c3c2)o1)c1ccccc1")
1.54

* * *

inhibition listing for selected compounds.
biological target: Protein-tyrosine kinase 2-beta (Homo sapiens); details: at 1 µM;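 further: values are the mean percent inhibition of PYK2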
experimental.endpoint: inhibition (%)

>>> test_value("FC(F)(F)c1ccc(-c2nn3ncccc3c2-c2ccnc(Nc3ccc4c(c3)OCCO4)n2)cc1")
1.96
>>> test_value("NS(=O)(=O)c1ccc(NC=C2C(=O)Nc3ccc4ncsc4c32)cc1")
66.8
>>> test_value("COC(=O)c1cncc(/C=C/c2c(C)cc(O)cc2C)c1")
10.1
>>> test_value("Cc1ccc(NC(=O)CC2CC2)cc1-c1ccc(C(=O)NCC2CC2)cc1")
9.67
>>> test_value("Cc1ccc(Nc2ccnc(Nc3cccc(C(N)=O)c3)n2)cc1O")
47.8
>>> test_value("COc1cccc(-n2ncc3c(N/N=C/c4ccc(C)cc4)ncnc32)c1")
15.8
>>> test_value("CCn1c(-c2nonc2N)nc2c(C#CC(C)(C)O)nc(OCCNC)cc21")
10.6
>>> test_value("CCS(=O)(=O)c1ccc(OC)c(Nc2ncc(-c3cccc(OC)c3)o2)c1")
10.9
>>> test_value("COc1cc(/C=N/Nc2ncnc3c2cnn3C(C)C)ccc1O")
21.9
>>> test_value("COc1ccc(-c2nn3ncccc3c2-c2ccnc(Nc3cccc(C(F)(F)F)c3)n2)cc1")
6.4

* * *

inhibition listing for selected molecules.
target: Activated CDC42 kinase 1 (Homo sapiens); details: at 1 µM
Description: GSK_PKIS: TNK2 mean inhibition at 1 uM [Nanosyn]
experimental.endpoint: inhibition (%)

>>> test_value("NS(=O)(=O)c1cccc(-c2cc3ccncc3cc2OCc2ccccc2)c1")
1.65
>>> test_value("Cc1cc(-c2ccccn2)cc(C)c1/C=C/c1cncc(-c2nn[nH]n2)c1")
2.33
>>> test_value("CS(=O)(=O)Nc1cccc(-c2ccc3c(NC(=O)C4CC4)n[nH]c3c2)c1")
-2.06
>>> test_value("Cc1cc(O)cc(C)c1/C=C/c1cncc(C(=O)N(C)C)c1")
2.24
>>> test_value("[O-][S+]1CCN(Cc2ccc(-c3ccc4ncnc(Nc5ccc(OCc6ccccc6)c(Cl)c5)c4c3)o2)CC1")
-0.42
>>> test_value("O=C1Nc2ccccc2/C1=C/Nc1ccc2[nH]c(=O)[nH]c2c1")
4.86
>>> test_value("COc1ccc2ncnc(Nc3ccc(OCc4ccccc4)cc3)c2c1")
1.66
>>> test_value("COc1cc2ncnc(Nc3ccc(C)c(O)c3)c2cc1OC")
5.7
>>> test_value("Cc1ccc(C(=O)NC2CC2)cc1-c1ccc2[nH]ncc2c1")
2.48
>>> test_value("Nc1nccc(-c2c(-c3ccc(F)cc3)ncn2CCCN2CCOCC2)n1")
1.33
>>> test_value("NS(=O)(=O)c1ccc(NC=C2C(=O)Nc3ccc4ncsc4c32)cc1")
9.93
>>> test_value("OCc1ccc(-c2nc(-c3ccccn3)c(-c3ccc4c(c3)OCO4)[nH]2)cc1")
2.78
>>> test_value("Nc1nccc(C#Cc2cncnc2Nc2ccc(OCc3cccc(F)c3)c(Cl)c2)n1")
3.21
>>> test_value("COc1cc2ncnc(Nc3ccc4c(cnn4Cc4ccccc4)c3)c2cc1OC")
4.91
>>> test_value("COc1cccc(-n2ncc3c(N/N=C/c4ccc(C)cc4)ncnc32)c1")
5.39
>>> test_value("Cc1ccc2c(c1)/C(=N/Nc1ccc(S(N)(=O)=O)cc1)C(=O)N2")
-0.62
>>> test_value("CCS(=O)(=O)c1ccc(OC)c(Nc2ncc(-c3cccc(OC)c3)o2)c1")
15.3
>>> test_value("CCn1c(-c2nonc2N)nc2ccc(F)cc21")
3.08
>>> test_value("CN(C)CCCn1c(-c2nonc2N)nc2cnccc21")
0.77
>>> test_value("c1ccc(Cc2nc3ccc(Nc4ncnc5ccccc45)cc3[nH]2)cc1")
3.26
>>> test_value("c1ccc(Nc2ncc(-c3ccccc3)o2)cc1")
0.93
>>> test_value("CS(=O)(=O)CCNCc1nc(-c2ccc3ncnc(Nc4ccc(OCc5cccc(C(F)(F)F)c5)cc4)c3c2)cs1")
3.3

* * *

molecular target: Leukocyte tyrosine kinase receptor (Homo sapiens); settings: at 1 µM;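 further: each value is the mean inhibition of LTK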
inhibition vs 3%: at or above is 1, below is 0.

>>> class_assignment("FC(F)(F)c1ccc(-c2nn3ncccc3c2-c2ccnc(Nc3ccc4c(c3)OCCO4)n2)cc1")
1
>>> class_assignment("Cc1cc(Cl)cc2c1NC(=O)C2=NNc1ccc(S(N)(=O)=O)cc1")
0
>>> class_assignment("CCn1c(-c2nonc2N)nc2ccc(F)cc21")
1
>>> class_assignment("N#Cc1cccc(Nc2nccc(-c3cnn4ncccc34)n2)c1")
1
>>> class_assignment("Cc1cc(O)cc(C)c1/C=C/c1cncc(C(=O)N(C)C)c1")
1
>>> class_assignment("Cc1cc(-c2ccccn2)cc(C)c1/C=C/c1cncc(-c2nn[nH]n2)c1")
1
>>> class_assignment("CC(C)c1ccc2c(c1)NC(=O)/C2=N/Nc1ccc(S(N)(=O)=O)cc1")
0
>>> class_assignment("CN(c1ccc(NC(=O)Nc2ccc(OC(F)(F)F)cc2)cc1)c1ccnc(Nc2cccc(S(N)(=O)=O)c2)n1")
1
>>> class_assignment("CCS(=O)(=O)c1ccc(OC)c(Nc2ncc(-c3cccc(OC)c3)o2)c1")
1

* * *

inhibition listing for selected compounds.
target: Rho-associated protein kinase 1 (Homo sapiens) (UniProt Q13464); settings: at 1 µM;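 further: reported values are mean percent inhibition of ROCK1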
Sequence (Q13464 2-1354 limits assumed): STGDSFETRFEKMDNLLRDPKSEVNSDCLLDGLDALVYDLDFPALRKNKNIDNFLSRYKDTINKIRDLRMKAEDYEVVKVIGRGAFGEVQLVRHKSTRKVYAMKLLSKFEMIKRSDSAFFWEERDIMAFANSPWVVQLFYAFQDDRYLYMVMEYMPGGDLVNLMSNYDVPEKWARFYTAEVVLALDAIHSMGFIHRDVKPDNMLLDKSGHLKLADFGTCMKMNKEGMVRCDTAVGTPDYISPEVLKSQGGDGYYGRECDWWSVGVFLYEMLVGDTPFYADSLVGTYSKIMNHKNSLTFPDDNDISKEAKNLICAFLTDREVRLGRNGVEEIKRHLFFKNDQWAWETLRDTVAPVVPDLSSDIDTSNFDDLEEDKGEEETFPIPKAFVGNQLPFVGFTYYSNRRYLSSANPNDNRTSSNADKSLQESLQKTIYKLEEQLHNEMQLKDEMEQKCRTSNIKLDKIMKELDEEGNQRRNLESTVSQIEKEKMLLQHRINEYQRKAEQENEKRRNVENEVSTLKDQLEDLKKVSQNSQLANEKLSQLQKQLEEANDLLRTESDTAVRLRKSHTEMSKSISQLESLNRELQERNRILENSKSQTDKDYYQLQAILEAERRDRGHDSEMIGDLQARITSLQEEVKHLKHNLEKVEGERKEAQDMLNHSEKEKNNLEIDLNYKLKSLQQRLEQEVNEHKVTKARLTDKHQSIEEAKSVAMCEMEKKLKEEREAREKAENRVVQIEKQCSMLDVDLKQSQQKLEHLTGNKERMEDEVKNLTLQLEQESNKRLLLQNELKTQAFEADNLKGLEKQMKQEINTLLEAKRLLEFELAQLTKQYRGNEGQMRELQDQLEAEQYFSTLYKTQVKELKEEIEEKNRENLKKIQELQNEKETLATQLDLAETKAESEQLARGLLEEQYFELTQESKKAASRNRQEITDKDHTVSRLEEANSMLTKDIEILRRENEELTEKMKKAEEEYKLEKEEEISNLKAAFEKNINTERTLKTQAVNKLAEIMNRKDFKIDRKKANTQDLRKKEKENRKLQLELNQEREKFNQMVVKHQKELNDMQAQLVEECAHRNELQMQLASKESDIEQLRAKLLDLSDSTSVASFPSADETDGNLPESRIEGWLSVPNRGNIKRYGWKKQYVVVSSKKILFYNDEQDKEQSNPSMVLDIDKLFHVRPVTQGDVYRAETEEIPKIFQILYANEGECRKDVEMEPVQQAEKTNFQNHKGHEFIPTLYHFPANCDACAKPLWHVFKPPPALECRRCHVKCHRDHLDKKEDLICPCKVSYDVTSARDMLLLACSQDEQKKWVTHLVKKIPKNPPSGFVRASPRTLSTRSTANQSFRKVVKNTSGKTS
experimental.endpoint: inhibition (%)

>>> test_value("CS(=O)(=O)Nc1cccc(-c2ccc3c(NC(=O)C4CC4)n[nH]c3c2)c1")
0.09
>>> test_value("O=C1Nc2ccc(-c3cccnc3)cc2C1=Cc1cc(Br)c(O)c(Br)c1")
4.77
>>> test_value("NS(=O)(=O)c1cccc(-c2cc3ccncc3cc2OCc2ccccc2)c1")
2.75
>>> test_value("N#Cc1cccc(Nc2nccc(-c3cnn4ncccc34)n2)c1")
5.33
>>> test_value("c1ccc(Cc2nc3ccc(Nc4ncnc5ccccc45)cc3[nH]2)cc1")
1.95
>>> test_value("NS(=O)(=O)c1ccc(-c2cc3ccncc3cc2OCc2ccccc2)cc1")
4.04
>>> test_value("Nc1ccc(C#Cc2cncnc2Nc2ccc(OCc3cccc(F)c3)c(Cl)c2)cc1")
2.72
>>> test_value("C[C@@H](Oc1cc(-n2cnc3ccc(OCC4CCN(C)CC4)cc32)sc1C(N)=O)c1ccccc1C(F)(F)F")
12
>>> test_value("CC(C)c1ccc(Nc2nccc(-c3cnn4ncccc34)n2)cc1")
10.9
>>> test_value("FC(F)(F)c1ccc(-c2nn3ncccc3c2-c2ccnc(Nc3ccc4c(c3)OCCO4)n2)cc1")
2.51
>>> test_value("CCS(=O)(=O)c1ccc(OC)c(Nc2nccc(N(C)c3ccc4c(C)n[nH]c4c3)n2)c1")
2.51
>>> test_value("Cc1ccc2c(-c3ccnc(Nc4ccc5c(c4)OCCO5)n3)c(-c3ccc(C(F)(F)F)cc3)nn2n1")
1.22
>>> test_value("COc1cc2ncnc(Nc3ccc(C)c(O)c3)c2cc1OC")
0.99
>>> test_value("NS(=O)(=O)c1ccc(Nc2cc(-c3cccc(O)c3)n[nH]2)cc1")
2.17
